Test system: female rats
Assay: estrus suppression assay (duration of suppression of vaginal cornification after one subcutaneous injection)
Type: in vivo, rats of the Sprague-Dawley strain
Settings: 8 mg/rat, aqueous microcrystalline suspension, subcutaneous; majority of experiments terminated at 91 days post injection
Examples of molecules with documented durations of suppression follow.
Provide only the numeric value, understood in days.

C#C[C@]1(OC(=O)C2CCC2)CC[C@H]2[C@@H]3CCC4=CC(=O)CC[C@@H]4[C@H]3CC[C@@]21CC [levo-norgestrel cyclobutylcarboxylate]    89.2
CC(=O)O[C@]1(C(C)=O)CC[C@H]2[C@@H]3C[C@H](C)C4=CC(=O)CC[C@]4(C)[C@H]3CC[C@@]21C [DMPA, medroxyprogesterone acetate, reference compound]    55.5

Now for a further molecule.
Looking for the measured durations of suppression of C#C[C@]1(OC(=O)C2CC2)CC[C@H]2[C@@H]3CCC4=CC(=O)CC[C@@H]4[C@H]3CC[C@@]21CC [levo-norgestrel cyclopropylcarboxylate] , can you help?
74.0
